# TARGET SYSTEM: Histone-lysine N-methyltransferase EHMT2 (Homo sapiens) (UniProt Q96KQ7)
# Sequence (Q96KQ7 913-1193 limits assumed): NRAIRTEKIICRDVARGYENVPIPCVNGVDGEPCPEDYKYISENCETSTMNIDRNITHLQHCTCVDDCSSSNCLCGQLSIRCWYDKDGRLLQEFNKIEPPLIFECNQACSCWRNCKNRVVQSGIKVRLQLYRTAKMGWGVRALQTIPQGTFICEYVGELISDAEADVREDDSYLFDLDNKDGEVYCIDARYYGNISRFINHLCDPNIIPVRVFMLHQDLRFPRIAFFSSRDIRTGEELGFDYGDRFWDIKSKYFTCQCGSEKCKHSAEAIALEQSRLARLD
# PROTOCOL: qHTS Assay for Inhibitors of Histone Lysine Methyltransferase G9a; note: nearly all actives have a fitted effect of over 75% in size
# EXPERIMENTAL CONDITIONS: G9a H3K9 monomethylation, AlphaScreen, 2 h; series mostly up to 59 µM
The campaign covered roughly 350,000 compounds. About 31,000 (8.9%) were called active. Roughly 15% stayed inconclusive and do not appear here. Calls come from the whole dose curve; as a rule, active = well fitted inhibition curve with a large enough effect; inconclusive = small, poorly fitted or top-dose-only effect; inactive = no such curve, though single readings can be large or run the other way. The entries come from a sample that favours actives as a whole.
Classes to choose from: 1 for active, -1 for inactive

// known answers, use as guide
compound=CCn1c(CNC(=O)c2ccc(OC)c(OC)c2)nnc1SCC(=O)Nc1ccccc1 label_value=-1
compound=COc1ccccc1CNC(=O)CS(=O)(=O)c1cccc2nsnc12 label_value=-1
compound=Cc1ccc(CCNC(=O)Cn2c(-c3cccs3)cc3cc(F)ccc32)cc1 label_value=-1
compound=COc1cc(-c2nnn(CC(=O)NCc3ccccc3)n2)cc(OC)c1OC label_value=-1
compound=COc1ccc(-n2cnnc2SCC(=O)Nc2cccc([N+](=O)[O-])c2)cc1 label_value=-1

Recorded test outcome, item CCN(CC)CCN(C(=O)c1cccc([N+](=O)[O-])c1)c1nc2ccc(OC)cc2s1
1

Recorded test outcome, item O=C(N/N=C/c1cc([N+](=O)[O-])ccc1O)/C(=C\c1cccs1)NC(=O)c1ccccc1
-1

Recorded test outcome, item CCCN(CC(=O)Nc1ccccc1OC)C(=O)CCC(=O)c1ccc(F)cc1
-1

Recorded test outcome, item COc1cc(-c2n[nH]c(=S)n2Cc2ccccc2)cc(OC)c1OC
1

Recorded test outcome, item COc1cccc2sc(N(CCCN(C)C)C(=O)CCS(=O)(=O)c3ccccc3)nc12
1

Recorded test outcome, item Nc1ccc(N=Nc2ccccc2Cl)c(N)n1
1

Recorded test outcome, item COc1cc2c(=O)c(S(=O)(=O)c3ccc(C(C)C)cc3)cn(Cc3ccccc3C)c2cc1OC
-1

###

# TARGET SYSTEM: Histone-lysine N-methyltransferase EHMT2 (Homo sapiens)
# PROTOCOL: qHTS Assay for Inhibitors of Histone Lysine Methyltransferase G9a; note: nearly all actives have a fitted effect of over 75% in size
# EXPERIMENTAL CONDITIONS: G9a H3K9 monomethylation, AlphaScreen, 2 h; series mostly up to 59 µM
The whole screen tested about 350,000 compounds, of which about 31,000 (8.9%) were called active. About 15% were inconclusive and are not listed. Calls come from the whole dose curve; as a rule, active = well fitted inhibition curve with a large enough effect; inconclusive = small, poorly fitted or top-dose-only effect; inactive = no such curve, though single readings can be large or run the other way. Many of the other results were omitted from the sample, so actives are more common in it than they were.
Classes to choose from: active, inactive

compound=CCOc1ccc(N(C)S(=O)(=O)c2cc(-c3cnc(C)o3)ccc2OC)cc1 label_value=inactive

Recorded test outcome, item CCN(CC(=O)Nc1c(F)cccc1F)C(=O)c1ccc(Sc2nncn2C)c([N+](=O)[O-])c1
inactive

Recorded test outcome, item CSCCC(NC(=O)c1ccco1)C(=O)Nc1cc(C)ccn1 (stereo not given)
inactive

Recorded test outcome, item O=C(COc1ccc(Cl)cc1)Nc1ccc2oc(=O)ccc2c1
inactive

Recorded test outcome, item Cc1cc(C)cc(Nc2ncnc3onc(-c4ccc(F)cc4)c23)c1
inactive

Recorded test outcome, item CC(Sc1cccc[n+]1[O-])C(=O)Nc1cccc(S(=O)(=O)N2CCOCC2)c1 (stereo not given)
active

###

# TARGET SYSTEM: Histone-lysine N-methyltransferase EHMT2 (Homo sapiens)
# PROTOCOL: qHTS Assay for Inhibitors of Histone Lysine Methyltransferase G9a; note: nearly all actives have a fitted effect of over 75% in size
# EXPERIMENTAL CONDITIONS: G9a H3K9 monomethylation, AlphaScreen, 2 h; series mostly up to 59 µM
Hit rate of the full screen: of about 350,000 compounds, about 31,000 (8.9%) were called active. Another 15% or so got no clear call; they are omitted. Calls come from the whole dose curve; as a rule, active = well fitted inhibition curve with a large enough effect; inconclusive = small, poorly fitted or top-dose-only effect; inactive = no such curve, though single readings can be large or run the other way. The list comes from a sample in which actives are over-represented; it also holds close analogues and randomly drawn compounds.
Classes to choose from: active, inactive

Recorded test outcome, item CC1CCN(CCC(=O)Nc2ccccc2)CC1
inactive

Recorded test outcome, item COc1ccc(CN2CCC(n3nccc3NC(=O)CCCc3ccccc3)CC2)cc1C
inactive

Recorded test outcome, item CCOc1cc(-c2nnc(SCC(=O)NC3CCCCC3)nc2-c2ccc(OC)c(OCC)c2)ccc1OC
active

Recorded test outcome, item CCOc1ccc2[nH]c3nc(SCC(=O)NC4CCCC4)nnc3c2c1
inactive

Recorded test outcome, item CCOC(=O)c1cc(-c2ccc(OC)c(S(=O)(=O)Nc3ccc(OC)cc3OC)c2)on1
inactive

###

# TARGET SYSTEM: Histone-lysine N-methyltransferase EHMT2 (Homo sapiens) (UniProt Q96KQ7)
# PROTOCOL: qHTS Assay for Inhibitors of Histone Lysine Methyltransferase G9a; note: nearly all actives have a fitted effect of over 75% in size
# EXPERIMENTAL CONDITIONS: G9a H3K9 monomethylation, AlphaScreen, 2 h; series mostly up to 59 µM
Among all 350,000 compounds or so, about 31,000 (8.9%) were called active. About 15% were inconclusive and are not listed. Calls follow the shape of the dose curve; as a rule, active = well fitted inhibition curve with a large enough effect; inconclusive = small, poorly fitted or top-dose-only effect; inactive = no such curve, though single readings can be large or run the other way. Shown is part of a subset that was picked to be rich in actives.
Classes to choose from: active, inactive

molecule=CCOc1ccc(CNC(=O)c2ccc3c(c2)nnn3C2CCCC2)cc1 label_value=inactive
molecule="CCn1c(SCC(=O)Nc2nc(C)cs2)nnc1C(C)NC(=O)c1ccccc1 (stereo not drawn)" label_value=inactive
molecule=CC1CCN(C(=S)c2cccc(O)c2)CC1 label_value=active
molecule="CC1CN(c2nc(-c3ccccc3)nnc2-c2ccccc2)CC(C)O1 (stereo not drawn)" label_value=inactive
molecule="CCCc1[nH]nc2c1C(c1ccc(Br)s1)C(C#N)=C(N)O2 (stereo not drawn)" label_value=active

Recorded test outcome, item O=C(/C=C/c1cccc(C(F)(F)F)c1)N1CCN(c2ccccn2)CC1
inactive

Recorded test outcome, item O=C(C1COc2ccccc2O1)N(Cc1cccnc1)c1nc2c(F)cc(F)cc2s1 (stereo not drawn)
inactive

Recorded test outcome, item CCCCCn1c(CCNC(=O)c2ccc(F)cc2)nc2ccccc21
inactive

Recorded test outcome, item O=C(O)c1n[nH]nc1-c1ccccc1
active

Recorded test outcome, item C=CCn1c(=O)c(C(=O)NCc2ccc3c(c2)OCO3)c(O)c2ccccc21
inactive

Recorded test outcome, item CCOc1ccc(CNC(=O)Cn2cc3c(n2)-c2c(oc(C(=O)N4CCCC4)c2C)CC3)cc1
inactive

Recorded test outcome, item CC1CN(CC(=O)NC(C)c2ccccc2)CC(C)O1 (stereo not drawn)
inactive

Recorded test outcome, item Cc1ccc(-c2cn3c(n2)sc2cc(C(=O)NCCCc4ccccc4)ccc23)cc1
inactive

Recorded test outcome, item O=C(Cn1nc(C(F)(F)F)c2c1CCCC2)Nc1ccc(Cl)cc1
inactive

Recorded test outcome, item Cc1nn(C)c(C)c1NS(=O)(=O)c1ccc(OC(F)(F)F)cc1
inactive

###

# TARGET SYSTEM: Histone-lysine N-methyltransferase EHMT2 (Homo sapiens) (UniProt Q96KQ7)
# PROTOCOL: qHTS Assay for Inhibitors of Histone Lysine Methyltransferase G9a; note: nearly all actives have a fitted effect of over 75% in size
# EXPERIMENTAL CONDITIONS: G9a H3K9 monomethylation, AlphaScreen, 2 h; series mostly up to 59 µM
# Description: Methylated lysines, on the N-terminal tails of histone proteins serve as epigenetic markers to recruit factors that can then modify local chromatin structure to lead to functional consequences. […] Methylation of biotinylated-histone peptide is measured through specific antibody-based detection, in conjunction with streptavidin-coated donor and anti-IgG antibody-coated acceptor beads. […]
Out of some 350,000 compounds screened, about 31,000 (8.9%) were called active. About 15% were inconclusive and are not listed. Calls follow the shape of the dose curve; as a rule, active = well fitted inhibition curve with a large enough effect; inconclusive = small, poorly fitted or top-dose-only effect; inactive = no such curve, though single readings can be large or run the other way. The sample holds actives, similar compounds and a random draw of the others, so the mix is not that of the screen.
Classes to choose from: 1.0 = active, 0.0 = inactive

// known answers, use as guide
compound=COc1ccccc1CN1CCN(C(c2ccccc2)c2ccccc2)CC1 label_value=1.0
compound=CC(C)NC(=S)N1CCN(C(c2ccccc2)c2ccccc2)CC1 label_value=0.0
compound=Oc1ccccc1CN1CCN(C(c2ccccc2)c2ccccc2)CC1 label_value=1.0
compound="CCOc1ccc(-c2n[nH]c3c2C(c2ccccc2OC)N(c2ccc(Br)cc2)C3=O)cc1 (configuration not stated)" label_value=0.0

Recorded test outcome, item CCN(CC(=O)Nc1ccc(OC)cc1)C(=O)c1ccc(Cl)c(S(=O)(=O)N2CCCC2)c1
0.0

###

activity, negative = inhibition for assorted compounds
# TARGET SYSTEM: Histone-lysine N-methyltransferase EHMT2 (Homo sapiens) (UniProt Q96KQ7)
# PROTOCOL: qHTS Assay for Inhibitors of Histone Lysine Methyltransferase G9a; note: nearly all actives have a fitted effect of over 75% in size; for activity, negative = inhibition: % is set by controls: 0 for no effect and ±100 for the full control effect
# EXPERIMENTAL CONDITIONS: G9a H3K9 monomethylation, AlphaScreen, 2 h; series mostly up to 59 µM
Hit rate of the full screen: of about 350,000 compounds, about 31,000 (8.9%) were called active. Not shown: some 15% with an inconclusive outcome. The entries come from a sample that favours actives as a whole.

Before answering, review these 5 worked examples.
compound="Cc1ccc(S(=O)(=O)NCCNC(C)c2ccc(Br)cc2)cc1 (configuration not stated)" outcome_measure="activity, negative = inhibition" result="-1.1% [at 12.7 µM] (inactive)"
compound="COc1cccc(CNC(=O)COC(=O)CN2C(=O)NC3(CCCCC3C)C2=O)c1 (configuration not stated)" outcome_measure="activity, negative = inhibition" result="7.7% [at 12.7 µM] (inactive)"
compound=CCCCN(C(=O)CCNC(=O)NC12CC3CC(CC(C3)C1)C2)c1c(N)n(CCCC)c(=O)[nH]c1=O outcome_measure="activity, negative = inhibition" result="-3.13% [at 0.501 µM] (inactive)"
compound=Nc1ccc2c3c(cccc13)C(=O)NC2=O outcome_measure="activity, negative = inhibition" result="29.3% [at 12.7 µM] (inactive)"
compound="CC12CCC(=O)N1C(C(=O)Nc1ccc(F)c(F)c1F)CS2 (configuration not stated)" outcome_measure="activity, negative = inhibition" result="13.3% [at 12.7 µM] (inactive)"

Look up and state reported activity, negative = inhibition for COc1ccc([N+](=O)[O-])cc1-c1nc2ccccc2nc1-c1ccccc1
7.8% [at 0.501 µM] (inactive)

Look up and state reported activity, negative = inhibition for CN1C(=O)c2cccc3c(N)ccc(c23)C1=O
-11.1% [at 2.33 µM] (inactive)

Look up and state reported activity, negative = inhibition for O=C1[C@H]2[C@@H](c3ccc(Cl)cc3)N3C(=O)N(c4cccc(F)c4)C(=O)[C@@]3(Cc3ccccc3)[C@H]2C(=O)N1C1CCCCC1
-8.78% [at 2.33 µM] (inactive)

Look up and state reported activity, negative = inhibition for COc1ccc(NC(=O)CCN2C(=O)/C(=C/c3ccc4c(c3)OCO4)SC2=S)cc1
7.02% [at 12.7 µM] (inactive)
